Study System: PHD2 enzyme (residues 181-417) (Homo sapiens (Human))
Assay Info: Inhibition of PHD enzyme (LC/MS peptide hydroxylation assay)
Type: biochemical
Run Parameters: PHD2 (residues 181-417) 5 nM, 60 min pre-incubation; -log(IC50), IC50 molar
Kindly supply the reported PHD Inhibition (pIC50) values for the records listed here.
One number for each entry.

Record excerpt, results attached:
> print(dat)
                                   molecule                              study.system  value
1  CCN1CCN(C(=O)c2ccc(-n3ncc(-c4ccc(C#N)c(F)c4C)c3O)nc2)[C@@H](C)C1 [Example 341]  PHD2 enzyme (residues 181-417) (Homo sapiens (Human))   8.47
2  Cc1cc(C#N)ccc1-c1cnn(-c2ccc(C(=O)NCCC3CCOC3)cn2)c1O (stereo not shown) [Example 66]  PHD2 enzyme (residues 181-417) (Homo sapiens (Human))   7.22
3  COc1cc(-c2cnn(-c3ccc(C(=O)NC4CCOCC4)cn3)c2O)ccn1 [Example 15]  PHD2 enzyme (residues 181-417) (Homo sapiens (Human))   7.21

Now, please, on to the next molecule.
query: Requested field: PHD Inhibition (pIC50). Item: CCNC(=O)c1ccc(-n2ncc(-c3ccc(C#N)cc3)c2O)nc1 [Example 266]
result: 7.23

----------
Study System: PHD2 enzyme (residues 181-417) (Homo sapiens (Human))
Assay Info: Inhibition of PHD enzyme (LC/MS peptide hydroxylation assay)
Type: biochemical
Run Parameters: PHD2 (residues 181-417) 5 nM, 60 min pre-incubation; -log(IC50), IC50 molar
Test Readout: PHD Inhibition (pIC50)
Numbers only.

Record excerpt, results attached:
> print(dat)
                                   molecule            test.readout  value
1  N#Cc1ccc(-c2cnn(-c3ccc(C(=O)NCC4CCCO4)cn3)c2O)cc1 (centres unmarked)  PHD Inhibition (pIC50)   7.57
2  N#Cc1ccc(-c2cnn(-c3ccc(C(=O)NCC4CCC4)cn3)c2O)cc1  PHD Inhibition (pIC50)   6.72
3  CCN1CCN(C(=O)c2ccc(-n3ncc(-c4ccc(C#N)cc4C)c3O)nc2)CC1  PHD Inhibition (pIC50)   8.00
4  N#Cc1ccc(-c2cnn(-c3ccc(C(=O)NCCCN4CCOCC4)cn3)c2O)cc1  PHD Inhibition (pIC50)   7.18
5  COc1cc(-c2cnn(-c3ccc(C(=O)N(C)C4CC4)cn3)c2O)ccn1  PHD Inhibition (pIC50)    6.9

Hi, could you look up PHD Inhibition (pIC50) for each item in my list?
1. CCNC(=O)c1ccc(-n2ncc(-c3ccnc(OC)c3)c2O)nc1
2. COC[C@H]1CCC[C@H]1NC(=O)c1ccc(-n2ncc(-c3ccc(C#N)cc3)c2O)nc1
3. COCCCNC(=O)c1ccc(-n2ncc(-c3cc(C)c(C#N)cc3C)c2O)nc1
4. CCCN1CCCN(C(=O)c2ccc(-n3ncc(-c4ccc(C#N)cc4C)c3O)nc2)CC1

result:
1: 8; 2: 8.1; 3: 7.78; 4: 7.70

Hi, could you look up PHD Inhibition (pIC50) for each item in my list?
1. CC[C@@H](C)NC(=O)c1ccc(-n2ncc(-c3ccc(C#N)cc3C)c2O)nc1
2. COc1cc(-c2cnn(-c3ccc(C(=O)NCC4CCN(C)CC4)cn3)c2O)ccn1

result:
1. 7.16
2. 7.5

----------
Study System: PHD2 enzyme (residues 181-417) (Homo sapiens (Human), UniProt Q9GZT9)
Sequence (Q9GZT9 181-417): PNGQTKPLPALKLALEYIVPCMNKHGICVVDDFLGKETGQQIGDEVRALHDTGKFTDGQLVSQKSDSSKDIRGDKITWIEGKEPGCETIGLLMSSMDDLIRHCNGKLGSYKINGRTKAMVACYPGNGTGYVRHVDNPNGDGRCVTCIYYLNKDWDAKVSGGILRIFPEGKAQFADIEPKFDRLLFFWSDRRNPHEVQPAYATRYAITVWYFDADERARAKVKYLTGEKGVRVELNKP
Assay Info: Inhibition of PHD enzyme (LC/MS peptide hydroxylation assay)
Type: biochemical
Run Parameters: PHD2 (residues 181-417) 5 nM, 60 min pre-incubation; -log(IC50), IC50 molar
Test Readout: PHD Inhibition (pIC50)
One number for each entry.

Record excerpt, results attached:
> print(dat)
                                   compound  value
1  Cc1cc(C#N)ccc1-c1cnn(-c2ccc(C(=O)N3CC(N4CCCCC4)C3)cn2)c1O   8.17
2  Cc1cc(C#N)ccc1-c1cnn(-c2ccc(C(=O)N(C)CCN(C)C)cn2)c1O   7.94
3  Cc1cc(C#N)ccc1-c1cnn(-c2ccc(C(=O)NCCC3CCCN3C)cn2)c1O (stereo not drawn)    7.9
4  Cc1cc(C#N)ccc1-c1cnn(-c2ccc(C(=O)NCCOC(F)(F)F)cn2)c1O      8
5  CCN(C)[C@@H]1CCCN(C(=O)c2ccc(-n3ncc(-c4ccc(C#N)cc4C)c3O)nc2)C1   8.00

Now, please, on to the next compound.
query: Requested field: PHD Inhibition (pIC50). Item: Cc1cc(C#N)ccc1-c1cnn(-c2ccc(C(=O)NCC3CN(C)CCO3)cn2)c1O (stereo not drawn)
result: 8.1

----------
Kindly supply the reported PHD Inhibition (pIC50) values for the records listed here.
Study System: PHD2 enzyme (residues 181-417) (Homo sapiens (Human), UniProt Q9GZT9)
Assay Info: Inhibition of PHD enzyme (LC/MS peptide hydroxylation assay)
Format: biochemical
Run Parameters: PHD2 (residues 181-417) 5 nM, 60 min pre-incubation; -log(IC50), IC50 molar
Numbers only.

> print(dat)
                                   molecule                              study.system  value
1  Cc1cc(C#N)ccc1-c1cnn(-c2ccc(C(=O)N3CCC[C@@H](N(C)C)C3)cn2)c1O [Example 315]  PHD2 enzyme (residues 181-417) (Homo sapiens (Human), UniProt Q9GZT9)   8.09
2  COCCCNC(=O)c1ccc(-n2ncc(-c3cc(OC)c(C#N)cc3C)c2O)nc1 [Example 426]  PHD2 enzyme (residues 181-417) (Homo sapiens (Human), UniProt Q9GZT9)   8.18

Hi, could you look up PHD Inhibition (pIC50) for each item in my list?
1. Cc1c(C#N)ccc(-c2cnn(-c3ccc(C(=O)N4CCN(C5CC5)CC4)cn3)c2O)c1C [Example 310]
2. Cc1cc(C#N)ccc1-c1cnn(-c2ccc(C(=O)NCCC3CCCCO3)cn2)c1O (stereo not shown) [Example 206]
3. COCCCNC(=O)c1ccc(-n2ncc(-c3c(C)cc(C#N)cc3F)c2O)nc1 [Example 404]
4. Cc1cc(C#N)ccc1-c1cnn(-c2ccc(C(=O)N3CCN(C4CC4)[C@H](C)C3)cn2)c1O [Example 375]
5. COCCN(C(=O)c1ccc(-n2ncc(-c3ccc(C#N)cc3C)c2O)nc1)C1CCN(C)CC1 [Example 422]

result:
1. 8.13
2. 8.2
3. 8.01
4. 8.06
5. 7.87

----------
Study System: PHD2 enzyme (residues 181-417) (Homo sapiens (Human))
Assay Info: Inhibition of PHD enzyme (LC/MS peptide hydroxylation assay)
Assay type: biochemical
Run Parameters: PHD2 (residues 181-417) 5 nM, 60 min pre-incubation; -log(IC50), IC50 molar
Test Readout: PHD Inhibition (pIC50)
Give bare numbers.

Record excerpt, results attached:
> print(dat)
                                   compound            test.readout  value
1  Cc1cc(C#N)ccc1-c1cnn(-c2ccc(C(=O)N3CCCC(N(C)C4CC4)C3)cn2)c1O (stereo in doubt)  PHD Inhibition (pIC50)   8.23
2  CCOCCCNC(=O)c1ccc(-n2ncc(-c3ccnc(OC)c3)c2O)nc1  PHD Inhibition (pIC50)   7.44
3  COc1cc(-c2cnn(-c3ccc(C(=O)NCCC(C)OC)cn3)c2O)ccn1 (centres unmarked)  PHD Inhibition (pIC50)    8.1
4  Cc1cc(C#N)ccc1-c1cnn(-c2ccc(C(=O)NC3CCN(CC(F)(F)F)CC3)cn2)c1O  PHD Inhibition (pIC50)   8.41

Hi, could you look up PHD Inhibition (pIC50) for each item in my list?
1. COCCCNC(=O)c1ccc(-n2ncc(-c3ccc(C#N)c(OC)c3C)c2O)nc1
2. N#Cc1ccc(-c2cnn(-c3ccc(C(=O)NC4CCCOC4)cn3)c2O)cc1 (centres unmarked)
3. CN(CCCN1CCCCC1)C(=O)c1ccc(-n2ncc(-c3ccc(C#N)cc3)c2O)nc1
4. Cc1cc(C#N)ccc1-c1cnn(-c2ccc(C(=O)N3CCC4(CCN(C)C4)C3)cn2)c1O (centres unmarked)
5. Cc1cc(C#N)ccc1-c1cnn(-c2ccc(C(=O)N3CCN4CCCC4C3)cn2)c1O (centres unmarked)
6. Cc1cc(C#N)ccc1-c1cnn(-c2ccc(C(=O)N(C)C)cn2)c1O

result:
1: 8.20; 2: 7.62; 3: 7.23; 4: 7.75; 5: 8.23; 6: 8.67

query: For the record Cc1cc(C#N)ccc1-c1cnn(-c2ccc(C(=O)N(C)C3CCN(C)CC3)cn2)c1O , what value of PHD Inhibition (pIC50) is listed for PHD2 enzyme (residues 181-417) (Homo sapiens (Human))?
result: 8.03
